Recorded values, source paper PMC10796436.

# Study Target: cruzain (CRZ) (Trypanosoma cruzi)
# Sequence (P25779 123-467): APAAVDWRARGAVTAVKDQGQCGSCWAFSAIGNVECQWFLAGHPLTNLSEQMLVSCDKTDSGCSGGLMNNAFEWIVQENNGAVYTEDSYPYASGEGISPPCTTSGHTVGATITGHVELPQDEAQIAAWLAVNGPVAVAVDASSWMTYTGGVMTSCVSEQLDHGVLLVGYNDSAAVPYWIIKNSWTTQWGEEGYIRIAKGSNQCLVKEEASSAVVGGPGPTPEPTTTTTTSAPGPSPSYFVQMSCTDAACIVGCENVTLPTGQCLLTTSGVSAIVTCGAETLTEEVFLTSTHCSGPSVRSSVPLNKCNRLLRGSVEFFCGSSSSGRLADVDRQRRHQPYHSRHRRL
Assay Readout: Ki (nM)
Kindly provide the numeric value in nM only, without the unit symbol.

Record CC(C)CC(NC(=O)C=Cc1ccccc1)C(=O)NC(C=C[N+](=O)[O-])CC1CCNC1=O (stereo not shown) : what is its Ki with cruzain (CRZ) (Trypanosoma cruzi)?
12.6

###

# Study Target: rhodesain (RhD) (Trypanosoma brucei rhodesiense, UniProt Q95PM0)
# Sequence (Q95PM0 entry or part of it): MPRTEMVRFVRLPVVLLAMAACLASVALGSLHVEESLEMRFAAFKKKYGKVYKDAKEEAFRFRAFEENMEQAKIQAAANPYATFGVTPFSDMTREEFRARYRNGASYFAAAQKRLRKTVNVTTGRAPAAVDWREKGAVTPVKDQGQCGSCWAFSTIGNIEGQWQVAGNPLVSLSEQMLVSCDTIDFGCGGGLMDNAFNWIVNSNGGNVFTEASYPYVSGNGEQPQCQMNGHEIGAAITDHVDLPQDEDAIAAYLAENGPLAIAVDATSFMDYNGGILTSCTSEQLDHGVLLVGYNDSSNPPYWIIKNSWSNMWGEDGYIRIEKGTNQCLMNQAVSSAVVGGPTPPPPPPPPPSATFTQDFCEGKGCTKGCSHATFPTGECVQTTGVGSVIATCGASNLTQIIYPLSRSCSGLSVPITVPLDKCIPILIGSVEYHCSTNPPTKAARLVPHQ
Assay Readout: Ki (nM)
Report the figure in nM without appending any unit label.

Write down the reported Ki of CC(C)CC(NC(=O)C=Cc1ccccc1)C(=O)NC(C=C[N+](=O)[O-])CC1CCNC1=O (stereo not shown) , test system: rhodesain (RhD) (Trypanosoma brucei rhodesiense, UniProt Q95PM0).
1.63
